The reported measurements were obtained from paper PMC10786891.

- Target: T1, EsCas13d, nuclease-dead (Eubacterium siraeum, UniProt B0MS50, R295A;H300A;R849A;H854A)
- T1 sequence: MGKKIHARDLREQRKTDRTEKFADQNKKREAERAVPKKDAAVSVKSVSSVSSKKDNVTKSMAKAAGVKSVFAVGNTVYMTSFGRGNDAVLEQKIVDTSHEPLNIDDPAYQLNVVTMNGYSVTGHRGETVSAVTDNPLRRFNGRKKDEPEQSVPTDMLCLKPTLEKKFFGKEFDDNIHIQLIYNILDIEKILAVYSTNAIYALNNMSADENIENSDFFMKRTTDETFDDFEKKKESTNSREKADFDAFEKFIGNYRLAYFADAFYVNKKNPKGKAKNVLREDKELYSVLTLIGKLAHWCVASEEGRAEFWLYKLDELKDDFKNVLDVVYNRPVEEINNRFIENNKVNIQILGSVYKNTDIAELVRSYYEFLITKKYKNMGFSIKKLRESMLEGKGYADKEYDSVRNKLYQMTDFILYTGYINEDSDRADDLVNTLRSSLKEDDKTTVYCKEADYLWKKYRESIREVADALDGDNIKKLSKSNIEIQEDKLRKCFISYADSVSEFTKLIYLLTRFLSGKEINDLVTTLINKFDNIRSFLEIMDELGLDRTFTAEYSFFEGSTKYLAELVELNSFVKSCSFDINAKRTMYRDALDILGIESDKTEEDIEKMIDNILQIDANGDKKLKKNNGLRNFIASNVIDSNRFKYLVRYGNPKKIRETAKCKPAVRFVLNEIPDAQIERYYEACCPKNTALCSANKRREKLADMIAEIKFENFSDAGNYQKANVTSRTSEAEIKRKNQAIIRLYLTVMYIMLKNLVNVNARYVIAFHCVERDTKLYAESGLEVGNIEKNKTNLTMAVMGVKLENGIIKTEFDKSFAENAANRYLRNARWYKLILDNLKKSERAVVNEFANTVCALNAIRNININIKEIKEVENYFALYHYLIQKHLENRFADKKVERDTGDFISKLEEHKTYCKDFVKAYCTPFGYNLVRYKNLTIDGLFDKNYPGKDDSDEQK
- Assay Explanation: crRNA (strand 1, pre-loaded); Mg2+; 40 mM Tris-HCl pH 7.5, 150 mM NaCl, 6 mM MgCl2, 1 mM DTT, 0.1% Tween-20, 0.2 mg/ml BSA; 25 C; 10 min per concentration, then washed
- Experimental Setup: tags: His6-TwinStrep-SUMO cleaved; N-terminal SNAP kept (SNAP-Surface 488); label: 3' end held by stalled T7 RNA polymerase
Each item that follows carries a reported Kd.
Give just the numeric value; µM need not be written.

Consider the worked cases shown below.
# Binder, Attribute Measured, Readout Units, Numeric Value
data = [
    ("target 1 MT 5'PFS GCU 3'PFS UCU (mixed) RNA 1: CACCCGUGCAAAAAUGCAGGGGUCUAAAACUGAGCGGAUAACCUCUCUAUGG RNA 2: GGGAAUGGAUCCACAUCUACGAAUUCGCUCCAUAGAGAGGUUAUCCGCUCAUCUAGAUCGGAAGAGCACACGU", "Kd", "µM", 0.03),
    ("target 1 insC 3' of 10,insG 3' of 2 (mixed) RNA 1: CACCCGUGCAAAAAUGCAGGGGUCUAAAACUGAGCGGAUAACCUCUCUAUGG RNA 2: GGGAAUGGAUCCACAUCUACGAAUUCGUACCAUAGAGAGGUUCAUCCGCUCGACCGAGAUCGGAAGAGCACACGU", "Kd", "µM", 0.0248),
]

// below: Kd requested for another binder
[Q] If you can, please state the reported Kd value of target 2 MT 5'PFS CGG 3'PFS UCG (mixed) RNA 1: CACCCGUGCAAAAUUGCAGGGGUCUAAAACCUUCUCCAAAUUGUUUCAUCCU RNA 2: GGGAAUGGAUCCACAUCUACGAAUUCCGGAGGAUGAAACAAUUUGGAGAAGUCGAGAUCGGAAGAGCACACGU .
[A] 0.007
